Test system: PBMC-derived induced microglia-like cells (piMGLC)
Assay: synaptosome phagocytic index relative to DMSO control (fraction of DMSO); higher = more phagocytosis
Details: concentration: 10 uM (2 uM for compounds listed in Table S2); pretreatment time: 24 h; assay time: 3 h
Where a name gives a salt, the structure may show the parent alone.
Dear colleague, classification is by synaptosome phagocytic index, with ranges listed here: lo: < 0.6; mid: ≥ 0.6 and < 0.8; hi: ≥ 0.8

### Prompt Where would "CCCC(CCC)C(=O)O" land among the classes by reported synaptosome phagocytic index?
### Response mid

### Prompt Which class holds CN[C@@H]1[C@H](O[C@H]2[C@H](O[C@H]3[C@H](O)[C@@H](O)[C@H](N=C(N)N)[C@@H](O)[C@@H]3N=C(N)N)O[C@@H](C)[C@]2(O)C=O)O[C@@H](CO)[C@H](O)[C@H]1O [Streptomycin_(sulfate)] ?
### Response mid

### Prompt # classify by synaptosome phagocytic index band: "COc1cc2nc(C3CC3)nc(N3CCN(c4ccccc4OC)CC3)c2cc1OC"
### Response lo

### Prompt Returns: class label. Input: Cc1ccsc1C(=CCCN1CCC[C@@H](C(=O)O)C1)c1sccc1C [Tiagabine_(hydrochloride)]
### Response hi

### Prompt Category of "Fc1c(Br)cccc1Nc1ncnc2cc3c(cc12)OCCO3" :
### Response lo

### Prompt State the band of "CC(=O)[C@H]1CC[C@H]2[C@@H]3CCC4=CC(=O)CC[C@]4(C)[C@H]3CC[C@]12C"
### Response mid

### Prompt // bin(item) where item = Nc1cc(C(F)(F)F)c(-c2cc(N3CCOCC3)nc(N3CCOCC3)n2)cn1 [Buparlisib]
### Response hi

### Prompt Bin? "Nc1ncnc2c1ncn2[C@@H]1O[C@H](CO)[C@@H](O)[C@H]1O"
### Response lo

### Prompt Bin? "Cc1cn([C@H]2C=C[C@@H](CO)O2)c(=O)[nH]c1=O"
### Response lo

### Prompt Class label required: "CN1C(=O)OC(C)(C)C1=O"
### Response mid

### Prompt # classify by synaptosome phagocytic index band: CNCCCN1c2ccccc2CCc2ccccc21 [Desipramine_hydrochloride]
### Response hi

### Prompt Please let me know in which category the item "Nc1ccn([C@@H]2CS[C@H](CO)O2)c(=O)n1" belongs.
### Response hi

### Prompt Into which category would you place "NC1CCN(c2cccc(Cl)n2)CC1" ?
### Response mid

### Prompt Where would CC(CN(C)C)CN1c2ccccc2CCc2ccccc21 (stereo not drawn) [Trimipramine_(maleate)] land among the classes by reported synaptosome phagocytic index?
### Response lo

### Prompt Which synaptosome phagocytic index band matches CC(C)NCC(O)COc1ccc(CC(N)=O)cc1 (stereo not drawn) ?
### Response mid

### Prompt Dear colleague, I would appreciate it if you could identify the bin for NCC(=O)CCC(=O)O [5-Aminolevulinic_acid_(hydrochloride)] and reply at your convenience.
### Response lo

---

Test system: PBMC-derived induced microglia-like cells (piMGLC)
Assay: synaptosome phagocytic index relative to DMSO control (fraction of DMSO); higher = more phagocytosis
Conditions: concentration: 10 uM (2 uM for compounds listed in Table S2); pretreatment time: 24 h; assay time: 3 h
Where a name gives a salt, the structure may show the parent alone.
measurement type: synaptosome phagocytic index
# output: bare number, no unit

### Prompt Give reported synaptosome phagocytic index value for CNCC[C@@H](Oc1ccccc1C)c1ccccc1 [Atomoxetine_(hydrochloride)]
### Response 1.16

### Prompt Give a short answer stating reported synaptosome phagocytic index for "O=C(c1cc(Cc2n[nH]c(=O)c3ccccc23)ccc1F)N1CCN(C(=O)C2CC2)CC1" .
### Response 0.997

### Prompt Give a short answer stating reported synaptosome phagocytic index for "Nc1cc(C(F)F)c(-c2nc(N3C4CCC3COC4)nc(N3C4CCC3COC4)n2)cn1" .
### Response 0.347

### Prompt Return the recorded synaptosome phagocytic index value; entry: CCc1cc(C(N)=S)ccn1 [Ethionamide]
### Response 0.996

### Prompt For the compound COc1ccccc1OCC(O)COC(N)=O (centres undefined) , give its measured synaptosome phagocytic index value.
### Response 0.902

### Prompt Write down synaptosome phagocytic index measured for item "Cc1cnc(NC(=O)C2=C(O)c3ccccc3S(=O)(=O)N2C)s1"
### Response 0.731

### Prompt Give recorded synaptosome phagocytic index. "N#Cc1ccc2[nH]cc(CCCCN3CCN(c4ccc5oc(C(N)=O)cc5c4)CC3)c2c1"
### Response 0.195

### Prompt Retrieve synaptosome phagocytic index measured for CN(C)C(=O)c1cc2cnc(Nc3ccc(N4CCNCC4)cn3)nc2n1C1CCCC1 [Ribociclib_succinate] and print it.
### Response 0.592

### Prompt # return recorded synaptosome phagocytic index for entry Nc1nc(NC2CC2)c2ncn([C@H]3C=C[C@@H](CO)C3)c2n1 [Abacavir_(sulfate)]
### Response 1.1

---

Tested on: PBMC-derived induced microglia-like cells (piMGLC)
Assay: synaptosome phagocytic index relative to DMSO control (fraction of DMSO); higher = more phagocytosis
Settings: concentration: 10 uM (2 uM for compounds listed in Table S2); pretreatment time: 24 h; assay time: 3 h
Where a name gives a salt, the structure may show the parent alone.
measurement type: synaptosome phagocytic index
# print the numeric value only

### Prompt Please look at this molecule and report its synaptosome phagocytic index: CN(C)CCc1c[nH]c2ccc(Cn3cncn3)cc12 [Rizatriptan_(benzoate)]
### Response 1.11

### Prompt Please supply the value of reported synaptosome phagocytic index for the item CN(Cc1cnc2nc(N)nc(N)c2n1)c1ccc(C(=O)N[C@@H](CCC(=O)O)C(=O)O)cc1 [Methotrexate]
### Response 1.02

### Prompt Supply synaptosome phagocytic index value. Item: "CN1CCN(C2=Nc3ccccc3Oc3ccc(Cl)cc32)CC1"
### Response 0.272

### Prompt Let me know recorded synaptosome phagocytic index for CN(CCOc1ccc(CC2SC(=O)NC2=O)cc1)c1ccccn1 (configuration not stated) , thanks.
### Response 1.19

### Prompt Return synaptosome phagocytic index (reported value) for this molecule: "O=C(O)[C@H]1CSC(c2nc3cc4c(cc3s2)NCC4)=N1"
### Response 0.923

### Prompt Identify synaptosome phagocytic index associated with the molecule "CO[C@H]1C[C@@H]2CC[C@@H](C)[C@@](O)(O2)C(=O)C(=O)N2CCCC[C@H]2C(=O)O[C@H]([C@H](C)C[C@@H]2CC[C@@H](OCCO)[C@H](OC)C2)CC(=O)[C@H](C)/C=C(\C)[C@@H](O)[C@@H](OC)C(=O)[C@H](C)C[C@H](C)/C=C/C=C/C=C/1C"
### Response 0.223

### Prompt Respond only with synaptosome phagocytic index recorded for "C[C@@H](C(=O)O)c1ccc(-c2ccccc2)c(F)c1"
### Response 1.11

### Prompt Let me know recorded synaptosome phagocytic index for "Fc1ccc(-c2c3cccc(C(F)(F)F)c3nn2Cc2ccc(F)cc2Cl)cc1" , thanks.
### Response 0.581

### Prompt Give recorded synaptosome phagocytic index. O=c1n(CCCN2CCN(c3cccc(Cl)c3)CC2)nc2ccccn12 [Trazodone_(hydrochloride)]
### Response 1.39

### Prompt State its synaptosome phagocytic index: "C[C@H](c1ccc(F)cc1CCCC(=O)O)N(c1cc(F)ccc1F)S(=O)(=O)c1ccc(Cl)cc1"
### Response 0.385

### Prompt Consider the molecule CN(C)CCC=C1c2ccccc2C=Cc2ccccc21 [Cyclobenzaprine_(hydrochloride)] . State its measured synaptosome phagocytic index.
### Response 0.59

### Prompt # return recorded synaptosome phagocytic index for input Nc1cc(C(F)(F)F)c(-c2cc(N3CCOCC3)nc(N3CCOCC3)n2)cn1 [Buparlisib_(Hydrochloride)]
### Response 0.429

### Prompt Entry CNS(=O)(=O)CCc1ccc2[nH]cc(C3CCN(C)CC3)c2c1 [Naratriptan_(hydrochloride)] needs its synaptosome phagocytic index filled in; supply it.
### Response 1.3

### Prompt Respond only with synaptosome phagocytic index recorded for "NNC(=O)c1ccncc1"
### Response 1.01

### Prompt In one line, give reported synaptosome phagocytic index of the entry CC(C)NCC(O)COc1cccc2ccccc12 (configuration not stated) [Propranolol_(hydrochloride)] .
### Response 1.1

### Prompt Return synaptosome phagocytic index for the following molecule: "CC[C@H](COc1cccnc1C1CCN(C(=O)[C@@H](Cc2ccc(Cl)cc2Cl)NC(=O)N2CCCC2)CC1)N1CCCC1"
### Response 0.292

### Prompt // Input: CC(=O)Nc1nnc(S(N)(=O)=O)s1 [Acetazolamide] . Output its synaptosome phagocytic index only.
### Response 1.03

---

Provide the reported synaptosome phagocytic index of each item.
Test system: PBMC-derived induced microglia-like cells (piMGLC)
Assay: synaptosome phagocytic index relative to DMSO control (fraction of DMSO); higher = more phagocytosis
Conditions: concentration: 10 uM (2 uM for compounds listed in Table S2); pretreatment time: 24 h; assay time: 3 h
Structures can show the parent of a compound that is named as a salt.
Number only, no unit.

### Prompt Give synaptosome phagocytic index for "O=C(CCCCCCC(=O)Nc1ccccc1)NO"
### Response 0.0904

### Prompt Read off the recorded synaptosome phagocytic index for "C[C@H](N=C(NC#N)Nc1cccc2ncccc12)c1ccccc1"
### Response 0.994

### Prompt Indicate the recorded synaptosome phagocytic index value for this compound: "Nc1cc(C(F)(F)F)c(-c2nc(N3CCOCC3)nc(N3CCOCC3)n2)cn1"
### Response 0.518

### Prompt Give reported synaptosome phagocytic index value for "CN(C)c1ncc(/C=C/c2nc3ccc(OCCF)cc3o2)s1"
### Response 0.356

### Prompt Item CN(C)CC(c1ccc(O)cc1)C1(O)CCCCC1 (stereo not drawn) [Desvenlafaxine_(succinate_hydrate)] : provide synaptosome phagocytic index
### Response 1.11

### Prompt Quote synaptosome phagocytic index reported for "O=C(NC1CCCCC1)N(Cc1ccccc1)CC1CCNCC1" please.
### Response 0.882

### Prompt Supply recorded synaptosome phagocytic index for "N[C@H](C(=O)O)[C@@H]1CC(Cl)=NO1" here.
### Response 0.68

### Prompt Find the measured synaptosome phagocytic index of "C[C@H]1OC[C@]2(c3cc(NC(=O)c4cnc(C(F)F)cn4)ccc3F)N=C(N)SC[C@H]12" and report it.
### Response 0.918

### Prompt Given CC(=O)OCC(=O)[C@@]1(O)[C@H](C)C[C@H]2[C@@H]3CCC4=CC(=O)C=C[C@]4(C)[C@@]3(F)[C@@H](O)C[C@@]21C [Dexamethasone_acetate] , respond with its synaptosome phagocytic index.
### Response 0.776

### Prompt Check the records and state synaptosome phagocytic index for CC(=O)c1c(C)c2cnc(Nc3ccc(N4CCNCC4)cn3)nc2n(C2CCCC2)c1=O [Palbociclib_(isethionate)]
### Response 0.421

### Prompt // Input: "Nc1nc2c(ncn2COCCO)c(=O)[nH]1" . Output its synaptosome phagocytic index only.
### Response 0.731

### Prompt Please give the documented synaptosome phagocytic index of "CC(C)c1nc(CN(C)C(=O)N[C@H](C(=O)N[C@@H](Cc2ccccc2)C[C@H](O)[C@H](Cc2ccccc2)NC(=O)OCc2cncs2)C(C)C)cs1"
### Response 0.742

### Prompt Determine its reported synaptosome phagocytic index: "C[C@H]1COCCN1c1nc(-c2cnc(N)cc2C(F)F)nc(N2CCOCC2)n1"
### Response 0.366

### Prompt Tell me measured synaptosome phagocytic index for "Cc1ccnc2c1NC(=O)c1cccnc1N2C1CC1" please.
### Response 0.84

### Prompt Return synaptosome phagocytic index (reported value) for this compound: "C[N+](C)(C)CCOP(=O)([O-])OC[C@H](O)CO"
### Response 0.483

### Prompt Identify the reported synaptosome phagocytic index for the following entry. FC(F)(F)c1ccc(CNc2ccc(Cc3c[nH]c4ncc(Cl)cc34)cn2)cn1 [Pexidartinib]
### Response 0.587

### Prompt Tell me its synaptosome phagocytic index given Cc1ccc(Nc2nccc(N(C)c3ccc4c(C)n(C)nc4c3)n2)cc1S(N)(=O)=O [Pazopanib_(Hydrochloride)] as the entry.
### Response 0.523

### Prompt Entry "CN1CCN(c2cc(-c3ccncc3)c(-c3ccc4ccccc4c3)nn2)CC1" needs its synaptosome phagocytic index filled in; supply it.
### Response 0.903

The origin of these recorded values is the supplement of paper PMC12339681.
